system: chickweed; assay: Test C preemergence/postemergence greenhouse plant response rating 0 to 100; format: in vivo, Stellaria media; details: Rate 16 g/ha; POSTEMERGENCE
Each record here notes measured Plant response rating (0 to 100), Chickweed.
Measurement type: Plant response rating (0 to 100), Chickweed

In [3]: df
Out[3]:
                               given_smiles  test_target  observed_measurement
0   CC(C)Oc1cc(-c2nn3c(c2Br)CCCC3)c(F)cc1Cl    chickweed                    20
1  C=CCN1C(=O)COc2cc(F)c(-c3nn4c(c3Cl)CCCC4)cc21    chickweed                    85
2  CCOC(=O)COc1cc(-c2nn3c(c2Cl)CCCC3)c(F)cc1Cl    chickweed                    20

###

system: barley; experiment: Test C preemergence/postemergence greenhouse plant response rating 0 to 100; assay type: in vivo, Hordeum vulgare; settings: Rate 16 g/ha; POSTEMERGENCE
Measurement type: Plant response rating (0 to 100), Barley Igri

                                   molecule  test_target  observed_measurement
0  C=CCN1C(=O)COc2cc(F)c(-c3nn4c(c3Br)CCCC4)cc21       barley                    30
1  CCN1C(=O)COc2cc(F)c(-c3nn4c(c3Cl)CCCC4)cc21       barley                    50
2  C#CCN1C(=O)COc2cc(F)c(-c3nn4c(c3Br)CCCC4)cc21       barley                    50
3  C#CC(C)Oc1cc(-c2nn3c(c2Br)CCCC3)c(F)cc1Cl (stereo not shown)       barley                    30
4  COCN1C(=O)COc2cc(F)c(-c3nn4c(c3Cl)CCCC4)cc21       barley                    40
5    Fc1cc(Cl)c(OCCCl)cc1-c1nn2c(c1Cl)CCCC2       barley                    20
6  COC(=O)C(C)Oc1cc(-c2nn3c(c2Cl)CCCC3)c(F)cc1Cl (stereo not shown)       barley                    30

###

Test system: soybean
Test: Test B preemergence/postemergence greenhouse plant response rating 0 to 10
Assay type: in vivo, Glycine max
Details: POSTEMERGENCE, Rate 10 g/ha; 0 to 10 scale
Excerpt: Seeds of barley (Hordeum vulgare), barnyardgrass (Echinochloa crus-galli), bedstraw (Galium aparine), blackgrass (Alopecurus myosuroides), […] […] Treated plants and controls were maintained in a greenhouse for twelve to sixteen days, after which all species were compared to controls and visually evaluated. […]
Measurement type: Plant response rating, Soybean

>>> df
                               given_smiles  observed_measurement
0  CCCCN1C(=O)COc2cc(F)c(-c3nn4c(c3Cl)CCCC4)cc21                     6
1  C#CCOC(=O)COc1cc(-c2nn3c(c2Cl)CCCC3)c(F)cc1Cl                     2
2  CC(C)N1C(=O)COc2cc(F)c(-c3nn4c(c3Cl)CCCC4)cc21                     7
3  CCN1C(=O)COc2cc(F)c(-c3nn4c(c3Cl)CCCC4)cc21                     8

###

test system: sorghum; experiment: Test B preemergence/postemergence greenhouse plant response rating 0 to 10; format: in vivo, Sorghum bicolor; details: Rate 200 g/ha, POSTEMERGENCE; 0 to 10 scale
Measurement type: Plant response rating, Sorghum

                                    compound  test_target  observed_measurement
 0  C#CC(C)Oc1cc(-c2nn3c(c2Cl)CCCC3)c(F)cc1Cl (centres unmarked)      sorghum                     6
 1  CC(C)OC(=O)c1cc(-c2nn3c(c2Cl)CCCC3)c(F)cc1Cl      sorghum                     5
 2   O=C1COc2cc(F)c(-c3nn4c(c3Br)CCCC4)cc2N1      sorghum                     6
 3  CC(C)Oc1cc(-c2nn3c(c2Cl)CCCC3)c(Cl)cc1Cl      sorghum                     6
 4  CC(C)OC(=O)COc1cc(-c2nn3c(c2Cl)CCCC3)c(F)cc1Cl      sorghum                     5
 5     COCOc1cc(-c2nn3c(c2Br)CCCC3)c(F)cc1Cl      sorghum                     7
 6     COCOc1cc(-c2nn3c(c2Cl)CCCC3)c(F)cc1Cl      sorghum                     6
 7   COCCOc1cc(-c2nn3c(c2Cl)CCCC3)c(Cl)cc1Cl      sorghum                     6
 8       COc1cc(-c2nn3c(c2Cl)CCCC3)c(F)cc1Cl      sorghum                     6
 9       Oc1cc(-c2nn3c(c2Cl)CCCC3)c(Cl)cc1Cl      sorghum                     4
10   CC(=O)c1cc(-c2nn3c(c2Cl)CCCC3)c(F)cc1Cl      sorghum                     5
11  COC(=O)c1cc(-c2nn3c(c2Cl)CCCC3)c(F)cc1Cl      sorghum                     8
12  CC(C)(C)C(=O)COc1cc(-c2nn3c(c2Cl)CCCC3)c(Cl)cc1Cl      sorghum                     5
13  C=C(Cl)COc1cc(-c2nn3c(c2Cl)CCCC3)c(F)cc1Cl      sorghum                     5

###

test system: barnyardgrass; assay: Test B preemergence/postemergence greenhouse plant response rating 0 to 10; format: in vivo, Echinochloa crus-galli; conditions: POSTEMERGENCE, Rate 50 g/ha
Measurement type: Plant response rating (0 to 10 scale), Barnyardgrass

>>> print(df.to_string())
                            given_smiles  observed_measurement
0    Clc1ccc(-c2nc3n(c2Cl)CCC=C3)c(Cl)c1                     2
1    COc1cc(-c2nn3c(c2Cl)CCCC3)c(F)cc1Cl                     8
2  CCCOc1cc(-c2nn3c(c2Cl)CCCC3)c(F)cc1Cl                     7
3     Clc1ccc(-c2nc3n(c2Br)CCCC3)c(Cl)c1                     3

###

tested on: chickweed; experiment: Test B preemergence/postemergence greenhouse plant response rating 0 to 10; format: in vivo, Stellaria media; details: POSTEMERGENCE, Rate 50 g/ha; 0 to 10 scale
Criterion: Plant response rating, Chickweed meeting or surpassing 4. Met: satisfied. Not met: not satisfied.

In [3]: df
Out[3]:
                                   compound  assigned_category
0  C#CC(C)N1C(=O)COc2cc(F)c(-c3nn4c(c3Cl)CCCC4)cc21 (centres unmarked) [Compound 50]          satisfied
1  Clc1cc(Cl)c(-c2nn3c(c2Cl)CCCC3)cc1OCC1CC1 [Compound 69]      not satisfied
2  COCN1C(=O)COc2cc(F)c(-c3nn4c(c3Cl)CCCC4)cc21 [Compound 55]          satisfied
3  Fc1cc(Cl)c(OCCCl)cc1-c1nn2c(c1Cl)CCCC2 [Compound 49]          satisfied
4  C#CCOC(=O)COc1cc(-c2nn3c(c2Cl)CCCC3)c(F)cc1Cl [Compound 61]      not satisfied
5  Oc1cc(-c2nn3c(c2Br)CCCC3)c(F)cc1Cl [Compound 81]      not satisfied
6  Fc1cc(Cl)ccc1-c1nn2c(c1Br)CCCC2 [Compound 52]          satisfied
7  CCC(=O)Oc1cc(-c2nn3c(c2Cl)CCCC3)c(F)cc1Cl [Compound 47]          satisfied
8  C#CCN1C(=O)COc2cc(F)c(-c3nn4c(c3Br)CCCC4)cc21 [Compound 56]          satisfied
9  CCOCOc1cc(-c2nn3c(c2Cl)CCCC3)c(F)cc1Cl [Compound 59]          satisfied

###

Reported Plant response rating, Morningglory values are given for each entry in this list.
Tested on: morningglory
Test: Test B preemergence/postemergence greenhouse plant response rating 0 to 10
Assay type: in vivo, Ipomoea hederacea
Details: Rate 200 g/ha, POSTEMERGENCE; 0 to 10 scale
Description: Seeds of barley (Hordeum vulgare), barnyardgrass (Echinochloa crus-galli), bedstraw (Galium aparine), blackgrass (Alopecurus myosuroides), […] […] Treated plants and controls were maintained in a greenhouse for twelve to sixteen days, after which all species were compared to controls and visually evaluated. […]
Measurement type: Plant response rating, Morningglory

In [3]: df
Out[3]:
                                   molecule                     measurement_type  observed_measurement
0  CC(C)OC(=O)COc1cc(-c2nn3c(c2Cl)CCCC3)c(F)cc1Cl [Compound 39]  Plant response rating, Morningglory                     9
1  CCOCOc1cc(-c2nn3c(c2Cl)CCCC3)c(F)cc1Cl [Compound 59]  Plant response rating, Morningglory                    10
2  CCC(C)Oc1cc(-c2nn3c(c2Cl)CCCC3)c(F)cc1Cl (centres unmarked) [Compound 48]  Plant response rating, Morningglory                    10
3  C=CCN1C(=O)COc2cc(F)c(-c3nn4c(c3Br)CCCC4)cc21 [Compound 41]  Plant response rating, Morningglory                    10
4  CC(=O)c1cc(-c2nn3c(c2Cl)CCCC3)c(F)cc1Cl [Compound 45]  Plant response rating, Morningglory                     9

The measurements presented in this section are drawn from patent US6358885B1.
